pKd by entry:
assayTarget: T1, recombinant human activated Factor VII (FVIIa) (human, UniProt P08709 61-212; P08709 213-466, ten glutamate residues of the Gla domain may be gamma-carboxylated)
T1 construct: chains tethered by a disulfide bond; also called Factor VIIa; rFVIIa
T1 sequence 1: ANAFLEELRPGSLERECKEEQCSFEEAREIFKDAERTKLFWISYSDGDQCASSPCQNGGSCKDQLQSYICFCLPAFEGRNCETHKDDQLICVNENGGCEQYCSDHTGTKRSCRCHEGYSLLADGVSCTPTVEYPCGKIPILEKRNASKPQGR
T1 sequence 2: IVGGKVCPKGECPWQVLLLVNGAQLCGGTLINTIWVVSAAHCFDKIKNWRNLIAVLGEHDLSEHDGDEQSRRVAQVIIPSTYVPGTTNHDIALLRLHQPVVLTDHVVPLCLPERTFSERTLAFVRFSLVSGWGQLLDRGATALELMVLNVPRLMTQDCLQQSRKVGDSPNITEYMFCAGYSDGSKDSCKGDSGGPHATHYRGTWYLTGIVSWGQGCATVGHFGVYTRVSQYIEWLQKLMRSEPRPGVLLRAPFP
procedureSummary: BLI (Fortebio)
Please keep in mind that pKd is minus log10 of the molar concentration; only the number is needed.

stdin: State its pKd: VH SEQ ID NO 586 / VL SEQ ID NO 342 (antibody, IgG4, V domains shown, humanized 11F2; IgG4 S228P/kappa) VH: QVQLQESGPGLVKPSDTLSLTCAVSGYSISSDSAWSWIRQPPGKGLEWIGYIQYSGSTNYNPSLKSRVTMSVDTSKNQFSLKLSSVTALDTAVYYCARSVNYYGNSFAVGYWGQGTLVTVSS VL: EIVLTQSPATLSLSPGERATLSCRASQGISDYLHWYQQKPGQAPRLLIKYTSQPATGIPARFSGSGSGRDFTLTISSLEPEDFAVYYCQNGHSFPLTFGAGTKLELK
stdout: 7.74

New cases:
stdin: Assign pKd to the following record: VH SEQ ID NO 602 / VL SEQ ID NO 438 (antibody, IgG4, V domains shown, humanized 11F2; IgG4 S228P/kappa) VH: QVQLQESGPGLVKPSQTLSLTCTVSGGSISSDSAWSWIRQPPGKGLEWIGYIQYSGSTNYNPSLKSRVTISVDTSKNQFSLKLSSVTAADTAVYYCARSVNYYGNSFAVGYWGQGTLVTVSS VL: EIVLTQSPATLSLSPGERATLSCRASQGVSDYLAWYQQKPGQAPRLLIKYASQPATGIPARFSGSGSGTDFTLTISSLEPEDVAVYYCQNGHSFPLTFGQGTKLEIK
stdout: 6.22

stdin: Write down pKd measured for item VH SEQ ID NO 522 / VL SEQ ID NO 446 (antibody, IgG4, V domains shown, humanized 11F2; IgG4 S228P/kappa) VH: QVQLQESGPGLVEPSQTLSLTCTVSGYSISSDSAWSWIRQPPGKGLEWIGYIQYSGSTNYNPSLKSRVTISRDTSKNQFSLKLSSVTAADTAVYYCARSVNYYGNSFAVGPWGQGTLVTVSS VL: EIVLTQSPATLSLSPGERATLSCRASQGVSDYLAWYQQKPGQAPRLLIKYTSQPATGIPARFSGSGSGTDFTLTISSLEPEDFAVYYCQNGHSFPLTFGQGTKLEIK
stdout: 6.77
